The entries below come with measured melting point values attached.

# count of solved cases: 5
Compound: COc1ccc(-c2cnc3[nH]cc(C(=O)NC4CCN(C)C4)c3n2)cc1OC (centres undefined)
melting point: 193 to 194 °C

Compound: CCOC(=O)COc1cccc(C(NC(C)=O)(C(=O)OCC)C(=O)OCC)c1
melting point: 98.5 to 102 °C

Compound: CC1CCCN(S(=O)(=O)c2cc(Cl)cc(C(=O)O)c2)C1 (centres undefined)
melting point: 177 to 179 °C

Compound: Cc1cccc(C)c1NC(=O)c1ccc(C#N)cc1
melting point: 185 to 187 °C

Compound: CCCCS(=O)(=O)On1nnc2ccc(Cl)cc21
melting point: 72 to 74 °C

Query: Answer with reported melting point of C=CCn1c(=O)c2ccccc2n2c(CCCl)nnc12
Response: 142 to 144 °C

Query: Answer with reported melting point of COC(=O)c1ccc(COc2cc3c(=O)n(-c4ccc(NC(=O)OC(C)(C)C)cc4)c(C(=O)OC)c(-c4cc(OC)c(OC)c(OC)c4)c3cc2OC)cc1
Response: 197 to 199 °C

---

The entries below come with measured melting point values attached.

Molecule: COC(=O)c1c(C(C)C)nc(C(C)C)c(CN2CCC(N3CCCCC3)CC2)c1-c1ccc(F)cc1
melting point: 59 to 61 °C
//
Molecule: CNc1nnc(-c2cc(C(C)(C)C)c(O)c(C(C)(C)C)c2)s1
melting point: 208 °C
//
Molecule: Clc1nc(Cl)c2sc(Cl)nc2n1
melting point: 121 to 122 °C
//
Molecule: C=C1N(CCC)C(=O)OC12CCNCC2
melting point: 106 to 108 °C
//
Molecule: Cc1nc2cccc(C)c2c(=O)[nH]1
melting point: 255 to 257 °C

Query: Answer with reported melting point of CCCCCC(=O)c1cc2c(cc1/C=C/c1ccc(C(=O)O)cc1)C(C)(C)CCC2(C)C
Response: 118 to 119 °C

Query: Answer with reported melting point of O=C1NCN2c3ccc([N+](=O)[O-])cc3Sc3cccc1c32
Response: 205 to 208 °C

Query: Answer with reported melting point of COC(=O)C(=NO)c1nc2cccc(OC)c2oc1=O
Response: 176 to 178 °C

Query: Answer with reported melting point of O=C(O)COCCCCS(=O)(=O)c1cnc(-c2ccccc2)c(-c2ccccc2)n1
Response: 123 to 125 °C

Query: Answer with reported melting point of COc1cc2c(CCN)c(C)[nH]c2c(Cl)c1Cl
Response: 184 to 186 °C

Query: Answer with reported melting point of CC(C)(C)S(=O)c1cccc(F)c1C(=O)NCCCl (configuration not stated)
Response: 80 to 90 °C

Query: Answer with reported melting point of CC(=O)OC(CF)c1cccnc1S(N)(=O)=O (configuration not stated)
Response: 127 to 129 °C

Query: Answer with reported melting point of COc1ccccc1-c1n[nH]c2ccccc12
Response: 99 °C

Query: Answer with reported melting point of Cc1cc2nccn2nc1OCC(C)(C)CCCCS(N)(=O)=O
Response: 169 to 170 °C

---

The entries below come with measured melting point values attached.

# count of solved cases: 10
Compound: CN(O)C(=O)c1ccc(CCCCc2ccccc2C(=O)O)cc1
melting point: 94 to 95 °C

Compound: N#Cc1ccc(-c2ccc(-c3ccc(C#N)cc3)o2)cc1
melting point: 294 to 295 °C

Compound: CC(C)c1cccc2c1O[C@@H](C(C)C)C(=S)N2CC(=O)O
melting point: 109 to 110 °C

Compound: COc1cc(-c2csc(C#N)n2)cc(Cl)c1OC
melting point: 147 to 149 °C

Compound: COC(=O)c1ccc(Cn2cc(C=C3C(=O)NC(=O)NC3=O)c3ccccc32)cc1
melting point: > 300 °C

Compound: O=C1NC(=O)C2(c3cc(Oc4ccc([N+](=O)[O-])cc4)c(Cl)cc3F)CCCCC12 (configuration not stated)
melting point: 126 °C

Compound: CCC(=O)C1=C(O)CC(c2cc3ccccc3cc2C)CC1=O (configuration not stated)
melting point: 118 °C

Compound: COC(=O)CCc1ccc(N2CCN(c3ccc(C(=N)NC(=O)OC)cc3)S2(=O)=O)cc1
melting point: > 275 °C

Compound: CCOC(=O)c1snc(-c2ccc(F)cc2)c1N
melting point: 137 to 139 °C

Compound: c1ccc(CCC2=NOC3(CCNCC3)C2)cc1
melting point: 106 to 109 °C

Query: Answer with reported melting point of Cc1oc(-c2ccc3ccccc3c2)nc1COc1ccc(COc2ncccc2CC(=O)O)cc1
Response: 155 to 156 °C

---

Observable: melting point

Query: Answer with reported melting point of C#CCOc1cc(Oc2cccc(Cl)c2)ncn1
Response: 71.6 °C

Query: Answer with reported melting point of NC(=O)N1CC(Oc2ccc(Br)cc2)C1
Response: 193 to 194 °C

Query: Answer with reported melting point of N=C(N)c1ccc(-c2ccc(-c3ccc(C(=N)N)cn3)o2)cc1
Response: 232 °C

Query: Answer with reported melting point of CN1CCN(c2ccc(N/C=C3\C(=O)NC(=O)c4ccc(-n5cccc5)cc43)cc2)CC1
Response: 239 to 240 °C

Query: Answer with reported melting point of CC(C)n1nc(-c2nc(N)c(C(N)=O)nc2-c2ccccc2)ccc1=O
Response: 217 to 220 °C

---

Observable: melting point

Query: Answer with reported melting point of COc1cc(OC)c(CC(=O)c2ccc(C(C)C)c(OS(N)(=O)=O)c2C(C)C)c(OC)c1
Response: 159 to 163 °C

---

The entries below come with measured melting point values attached.

# count of solved cases: 3
Compound: CCCOCCN(CC)c1ccc(-c2ccc3c(c2)C=C(C(=O)Nc2ccc(CN(C)C4CCOCC4)cc2)CCS3(=O)=O)cc1
melting point: 172 to 175 °C
//
Compound: CCOC(=O)C1CCc2c1sc(C)c2C(=O)c1ccc(SC)cc1 (stereo not given)
melting point: 62 to 64 °C
//
Compound: Cc1nc2ccccc2n1C(C)(C)CO
melting point: 180 to 181 °C

Query: Answer with reported melting point of O=c1[nH]c2cc(C(F)(F)F)cc3c2n(c1=O)C(P(=O)(O)O)CC3 (stereo not given)
Response: 262 °C

Query: Answer with reported melting point of COc1ccc(CC(=O)NCCc2cc3c(cc2C)CCC3)cc1OC
Response: 144 to 145 °C

---

The entries below come with measured melting point values attached.

# count of solved cases: 6
Molecule: CCc1cc2c(NC(C)c3ccccc3)ncnc2s1 (stereo not given)
melting point: 141 °C
--
Molecule: Nc1ccc(NC(=O)CCCCC2CCSS2)cc1 (stereo not given)
melting point: 55 to 60 °C
--
Molecule: C[C@@H](NC(=O)c1nsc(-c2ccc(Cl)cc2)n1)[C@](O)(Cn1cncn1)c1ccc(F)cc1F
melting point: 186 to 187 °C
--
Molecule: O=C1CCC(O)(c2ccc(Cl)c(Cl)c2)CN1Cc1ccc(F)cc1 (stereo not given)
melting point: 146 °C
--
Molecule: Nc1nc(-c2cc(Cl)ccc2Cl)nc(N2CCC2)n1
melting point: 207 to 208 °C
--
Molecule: COc1ccc(CS(=O)(=O)c2cc3c(OC)cc(OC)cc3oc2=O)cc1
melting point: 183 to 185 °C

Query: Answer with reported melting point of COc1nc(C)cnc1NS(=O)(=O)c1ccccc1-c1ccc(C)cc1
Response: 184 to 185 °C

Query: Answer with reported melting point of CC(=O)NC[C@H]1CN(c2ccc(N3CCC(n4nnc(N5CCN(C)CC5)n4)CC3)c(F)c2)C(=O)O1
Response: 174 to 176 °C

Query: Answer with reported melting point of COc1ccc(F)cc1C(C)(C)CC(O)(Cc1cc(C)cc(C)n1)C(F)(F)F (stereo not given)
Response: 95 to 98 °C

Query: Answer with reported melting point of Cc1nc2c(N)nc3ccccc3c2n1Cc1ccccc1
Response: 279 to 282 °C

---

The entries below come with measured melting point values attached.

Compound: O=S(=O)(Nc1cccnc1Nc1ccccc1)c1ccccc1
Data Value: 148 to 150 °C
--
Compound: CCOCc1cc2cc(Cl)ccc2oc1=Nc1ccc(C)cc1
Data Value: 76 to 77 °C
--
Compound: CC(C)c1cc(NC(=O)C(CS)Cc2ccccc2)cc(C(=O)O)c1 (stereo not given)
Data Value: 205 to 209 °C

Query: Answer with reported melting point of O=C(O)C(=O)c1ccc2c(c1)OCO2
Response: 144 to 146 °C

Query: Answer with reported melting point of CC(C)(C)P(=O)(CCC(=O)O)CCC(=O)O
Response: 174 °C

Query: Answer with reported melting point of COc1cccc(-n2nc(Cl)cc2-c2ccc(S(C)(=O)=O)cc2)c1
Response: 103 to 104 °C

---

The entries below come with measured melting point values attached.

Molecule: Cc1nc(-c2cc3cccc(N(C)S(=O)(=O)c4cccs4)c3[nH]2)cs1
melting point: 161 to 162 °C

Molecule: CS(=O)(=O)c1ccc(-c2cnn(-c3cccc(Cl)c3)c(=O)c2Cc2ccccc2)cc1
melting point: 174 to 177 °C

From here, focus on the item given below.
Query: Answer with reported melting point of CS(=O)(=O)c1ccc(-c2nc3cc(C4CCN(S(=O)(=O)CCCO)CC4)ccc3o2)c(F)c1
Response: 204 to 206 °C

Attribution: a melting point compilation (Tetko et al.; mined from patent text by program, amines drawn as free bases though some values may be those of a salt)
